system: CUG-CAG duplex ("Duplex") (SEQ ID NO: 6); assay: SPR binding to immobilized biotinylated RNA; conditions: SPR, Duplex
REPORTED ENDPOINT: Off-rates (koff)
Reply with the number and its unit after it.

As a guide, the following entries are already answered.
>>> result_value("CCc1nc2cc3ccccc3cc2cc1C(=O)N[C@@H](CCCCN)C(=O)N[C@@H](C/C=C\\C[C@H](NC(=O)[C@H](CCCCN)NC(=O)c1cc2cc3ccccc3cc2nc1CC)C(=O)N1CCC[C@H]1C(=O)NCCCN)C(=O)N1CCC[C@H]1C(=O)NCCCN")
"0.00271 s⁻¹"
>>> result_value("CCc1nc2cc3ccccc3cc2cc1C(=O)N1CCC[C@H]1C(=O)N[C@@H](C/C=C/C[C@H](NC(=O)[C@@H]1CCCN1C(=O)c1cc2cc3ccccc3cc2nc1CC)C(=O)N[C@@H](CCCCN)C(=O)NCCCN)C(=O)N[C@@H](CCCCN)C(=O)NCCCN")
"0.00384 s⁻¹"
>>> result_value("CCc1nc2cc3ccccc3cc2cc1C(=O)N[C@@H](CCCCN)C(=O)N[C@@H](C/C=C/C[C@H](NC(=O)[C@H](CCCCN)NC(=O)c1cc2cc3ccccc3cc2nc1CC)C(=O)N1CCC[C@H]1C(=O)NCCCN)C(=O)N1CCC[C@H]1C(=O)NCCCN")
"0.00186 s⁻¹"

Switching to the query record.
Query: # return Off-rates (koff) of CCc1nc2cc3ccccc3cc2cc1C(=O)N1CCC[C@H]1C(=O)N[C@@H](C/C=C\C[C@H](NC(=O)[C@@H]1CCCN1C(=O)c1cc2cc3ccccc3cc2nc1CC)C(=O)N[C@@H](CCCCN)C(=O)NCCCN)C(=O)N[C@@H](CCCCN)C(=O)NCCCN (system: CUG-CAG duplex ("Duplex") (SEQ ID NO: 6))
Reply: 0.00153 s⁻¹

Values from patent US20140050778A1
